Record: IC50 reported on Carbonic anhydrase 2 (Bos taurus, UniProt P00921).
Sequence (P00921 whole entry): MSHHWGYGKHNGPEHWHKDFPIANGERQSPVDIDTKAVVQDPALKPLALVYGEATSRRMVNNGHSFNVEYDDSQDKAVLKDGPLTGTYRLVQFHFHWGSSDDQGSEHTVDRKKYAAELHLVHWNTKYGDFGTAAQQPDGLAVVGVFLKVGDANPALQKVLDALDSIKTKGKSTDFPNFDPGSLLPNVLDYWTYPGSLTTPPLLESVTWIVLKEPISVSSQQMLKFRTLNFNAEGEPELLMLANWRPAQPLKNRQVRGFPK
Measured property: IC50

INSERT INTO assay_data (molecular_string, measured_property, observed_result) VALUES
  ('CCOC(=O)NC(=S)Nc1ccc(C(c2c[nH]c3ccc(Br)cc23)c2c[nH]c3ccc(Br)cc23)cc1', 'IC50', '70.4 µM'),
  ('S=C(Nc1ccc(C(c2c[nH]c3ccc(Cl)cc23)c2c[nH]c3ccc(Cl)cc23)cc1)Nc1cc(Cl)ccc1Cl', 'IC50', '139 µM'),
  ('S=C(Nc1ccc(C(c2c[nH]c3ccc(Cl)cc23)c2c[nH]c3ccc(Cl)cc23)cc1)Nc1cccc(Cl)c1', 'IC50', '54.4 µM'),
  ('O=[N+]([O-])c1ccc(NC(=S)Nc2ccc(C(c3c[nH]c4ccc(Br)cc34)c3c[nH]c4ccc(Br)cc34)cc2)cc1', 'IC50', '32.3 µM');
